# Tested on: Trypanosoma brucei
# protocol.text: Trypanosoma brucei 72 hour study
# Assay type: functional, organism-based
# Design: scale not given: in the data most compounds retested in dose-response had high values
# cond: 30 µM; 30.03 µM
Out of some 66,000 compounds screened, about 960 (1.5%) showed an effect of 50% or more. The sample holds strong results, similar compounds and a random draw of the others, so the mix is not that of the screen.
Assign class by Percent Effect: not lower than 20% means fulfilled; lower than 20% means not fulfilled.

Past entries and their recorded results:
Q) Reported Percent Effect at or above 20%? CN(CCS(=O)(=O)c1cc(Cl)ccc1Cl)CC(N)=O
A) not fulfilled

Q) Does COc1cc(OC)c2nc(NCCN3CCNC3=O)cc(C)c2c1 have a reported Percent Effect of at least 20%?
A) fulfilled

Q) Identify whether the reported Percent Effect of the following compound is 20% or greater: Cc1ccc(C#N)c(N2CCC(c3nccn3Cc3cscn3)CC2)n1
A) fulfilled

Q) Does the compound CN(CCS(=O)(=O)c1cc(Cl)ccc1Cl)CC(=O)Nc1cccc(F)c1 have recorded Percent Effect that is 20% or more?
A) not fulfilled

Q) Please tell me: is the compound COc1cc2nc(NCCNS(C)(=O)=O)cc(C)c2cc1OC at or over 20% in terms of Percent Effect?
A) fulfilled

Q) Kindly determine if Percent Effect recorded for Cc1cc(NCCS(C)(=O)=O)nc2cc3c(cc12)CCC3 is above or exactly 20%.
A) not fulfilled

Q) For this compound, is measured Percent Effect 20% or higher? Cc1cc(NCCN2CCNC2=O)nc2cc3c(cc12)CCC3
A) fulfilled

Q) Tell me whether Percent Effect is at least 20% here: COCC1CC2(CCN(Cc3ccoc3)CC2)CN1C(C)C.O=C(O)C(F)(F)F.O=C(O)C(F)(F)F (stereo unspecified)
A) fulfilled

---
Q) Is reported Percent Effect greater than or equal to 20% here: COc1cc2nc(NCCN3CCNC3=O)cc(C)c2cc1OC
A) fulfilled

Q) Form field: Percent Effect at least 20%? Entry: CC(C)=CCN1C(=O)[C@H]2CC[C@@H]1CN(C(=O)CCc1nc(Cl)n[nH]1)C2
A) not fulfilled

Q) # bool: Percent Effect of Cc1cc(NCCNS(C)(=O)=O)nc2cc3c(cc12)CCC3 >= 20%
A) not fulfilled

---

# System: Trypanosoma brucei
# protocol.text: Trypanosoma brucei 72 hour study
# Format: functional, organism-based
# Set-up: scale not given: in the data most compounds retested in dose-response had high values
# cond: 10 µM
In all, about 66,000 compounds went through this assay and about 960 (1.5%) showed an effect of 50% or more. What follows is part of a selection rich in strong results, with near analogues and random picks from the rest.
Entries and their Percent Effect
Number in %, nothing else.

Illustrative cases are given below, each with its answer.
Q) # query: Percent Effect of entry O=C(CN1CCC(c2ccnn2CCO)CC1)NCc1ccco1
A) -47.08

Q) Query: Percent Effect; subject: O=C(NCCc1ccn(-c2ccccc2)n1)N1CCCC(O)C1 (stereo not given)
A) 103.1

Pending compound:
Q) # query: Percent Effect of entry Cc1ccoc1-c1nnc(CN2CCn3c(C)nnc3C2)o1
A) -13.57

---

# Test system: Trypanosoma brucei
# protocol.text: Trypanosoma brucei 72 hour study
# Format: functional, organism-based
# Set-up: scale not given: in the data most compounds retested in dose-response had high values
# cond: 30.3 µM; […]
About 960 (1.5%) of roughly 66,000 compounds showed an effect of 50% or more. What follows is part of a selection rich in strong results, with near analogues and random picks from the rest.
Recorded Percent Effect for the following compounds
Quick note: give the figure in %, leave out the unit.

Record excerpt, results attached:
Q) What measured Percent Effect goes with O=C(CN1C[C@H]2C[C@H](OCc3ccccc3)C[C@H]2C1)N1CCOCC1 ?
A) -15.88

Q) For the compound CN1CCC2(CCCN(c3nccc(C(F)(F)F)n3)C2)CC1.O=C(O)C(F)(F)F , what Percent Effect is on record?
A) 3.781

Q) Please report the recorded Percent Effect for CC(C)CN1C(=O)C2(CCN(CC3CCOCC3)C2)c2ccccc21.O=C(O)C(F)(F)F (stereo not given) .
A) -1.145

***
Q) Entry under review: CN(C)c1cc(C2CCCN(S(=O)(=O)c3cn[nH]c3)C2)ccn1 (stereo not given) . Reported Percent Effect?
A) -2.52

Q) Please give the measured Percent Effect for this compound: CNC(=O)c1ccc(C2CCCN(C(=O)c3sc(C)nc3C)C2)nc1 (stereo not given)
A) -1.908

Q) Form field: reported Percent Effect of Cc1noc(C)c1CN1CCn2cc(CN3CCCC3)nc2C1.O=C(O)C(F)(F)F.O=C(O)C(F)(F)F
A) 0.2362

Q) Which Percent Effect is listed for COCCN1CCc2cc(C(=O)O)c(NCC3CC3)nc2CC1.O=C(O)C(F)(F)F.O=C(O)C(F)(F)F ?
A) -92.37

Q) Can you share its Percent Effect? I mean this compound: CCOc1ccc(C#N)cc1NCC(=O)OC
A) -4.293

Q) Name the reported Percent Effect value associated with the compound CC(=O)N1CCN(Cc2ccc(F)cc2)CC2(CC(=O)N(C)C2)C1.O=C(O)C(F)(F)F (stereo not given)
A) -72.99

Q) Need Percent Effect, item CC(C)NC(=O)N1CCOC2(CCCN(c3ncccc3F)C2)C1.O=C(O)C(F)(F)F (stereo not given)
A) -41.85
